- measurementNotes: Single rising oral dose Phase 1 PK, healthy adults (young males unless stated)
- Format: in vivo, human
- protocolConditions: male, human, plasma, oral, 200 mg, single 200 mg
measuredParameter: AUC(0-inf) (ng·h/mL)
Just the number in ng·h/mL, nothing appended.

query: Quick check: AUC(0-inf) of O=C(Nc1ccc(C[C@@H]2CC[C@H]([C@H](O)c3ccccc3)N2)cc1)[C@@H]1CCc2nccc(=O)n21 ?
result: 3630

----------
- measurementNotes: Single rising oral dose Phase 1 PK, healthy adults (young males unless stated)
- Type: in vivo, human
- protocolConditions: male, human, plasma, oral, 100 mg, single 100 mg, Japanese
- Method: The steady state AUC geometric mean accumulation ratios were ˜2 in young male subjects and ˜2.8 in elderly subjects (male and female). All subjects were healthy adults. […] Systemic exposures were greater than dose proportional up to 600 mg. Although exposures were similar in middle-aged males when compared to young males, plasma concentrations were higher in elderly compared to middle-aged and young subjects. […]
measuredParameter: AUC(0-inf) (ng·h/mL)
Just the number in ng·h/mL, nothing appended.

query: Quick check: AUC(0-inf) of O=C(Nc1ccc(C[C@@H]2CC[C@H]([C@H](O)c3ccccc3)N2)cc1)[C@@H]1CCc2nccc(=O)n21 ?
result: 1770
